Biological target: hERG (Homo sapiens)
Test: Patch clamp assay (hERG tail currents, whole-cell)
Details: 10 μM compound
readout name: hERG % Remaining

> print(dat)
                                smiles.input      readout.name      value.reported
 1  CCN(CC)S(=O)(=O)N[C@@H]1CC[C@@H](CN2CCC3(CC2)CN(c2ncncc2Oc2ccc(F)cc2C(=O)N(CC(F)F)C(C)C)C3)OC1  hERG % Remaining  ++ (233% and ≤66%)
 2  CC(C)N(C(=O)c1cc(F)ccc1Oc1cncnc1N1CC2(CCN(C[C@@H]3CC[C@@H](NS(=O)(=O)N(C)C)CO3)CC2)C1)C1CC(F)(F)C1  hERG % Remaining          +++ (≥66%)
 3  CC(C)N(C(=O)c1cc(F)ccc1Oc1cncnc1N1CC2(CCN(C[C@@H]3CC[C@@H](NS(=O)(=O)N(C)C)CO3)CC2)C1)C1CC1  hERG % Remaining          +++ (≥66%)
 4  CCS(=O)(=O)N[C@@H]1CC[C@@H](CN2CCC3(CC2)CN(c2ncncc2Oc2ccc(F)cc2C(=O)N(CC(F)F)C(C)C)C3)OC1  hERG % Remaining          +++ (≥66%)
 5  CCN(C(=O)c1cc(F)ccc1Oc1cncnc1N1CC2(CCN(C[C@@H]3CC[C@@H](NS(=O)(=O)c4ccc(OC)cc4)CO3)CC2)C1)C(C)C  hERG % Remaining            + (<33%)
 6  CCN(C(=O)c1cc(F)ccc1Oc1cncnc1N1CC2(CCN(C[C@@H]3CC[C@@H](NS(=O)(=O)C4CCC4)CO3)CC2)C1)C(C)C  hERG % Remaining          +++ (≥66%)
 7  CCN(C(=O)c1cc(F)ccc1Oc1cncnc1N1CC2(CCN(C[C@@H]3CC[C@@H](NS(=O)(=O)c4cccc(OC)c4)CO3)CC2)C1)C(C)C  hERG % Remaining            + (<33%)
 8  Cc1ncc(S(=O)(=O)N[C@@H]2CC[C@@H](CN3CCC4(CC3)CN(c3ncncc3Oc3ccc(F)cc3C(=O)N(C(C)C)C(C)C)C4)OC2)s1  hERG % Remaining  ++ (233% and ≤66%)
 9  CC(C)N(C(=O)c1cc(F)ccc1Oc1cncnc1N1CC2(CCN(C[C@@H]3CC[C@@H](NS(=O)(=O)C(C)C)CO3)CC2)C1)C(C)C  hERG % Remaining          +++ (≥66%)
10  C[C@@H]1COC[C@H](C)N1C(=O)c1cc(F)ccc1Oc1cncnc1N1CC2(CCN(C[C@@H]3CC[C@@H](NS(=O)(=O)c4ccccc4)CO3)CC2)C1  hERG % Remaining          +++ (≥66%)
11  CC(C)N(C(=O)c1cc(F)ccc1Oc1cncnc1N1CC2(CCN(C[C@@H]3CC[C@@H](NS(=O)(=O)N4CCOCC4)CO3)CC2)C1)C(C)C  hERG % Remaining          +++ (≥66%)
12  CCN(C(=O)c1cc(F)ccc1Oc1cncnc1N1CC2(CCN(C[C@@H]3CC[C@@H](NS(=O)(=O)c4cnc(C)o4)CO3)CC2)C1)C(C)C  hERG % Remaining  ++ (233% and ≤66%)

====

Target: hERG (Homo sapiens, UniProt Q12809)
Sequence (Q12809 whole entry): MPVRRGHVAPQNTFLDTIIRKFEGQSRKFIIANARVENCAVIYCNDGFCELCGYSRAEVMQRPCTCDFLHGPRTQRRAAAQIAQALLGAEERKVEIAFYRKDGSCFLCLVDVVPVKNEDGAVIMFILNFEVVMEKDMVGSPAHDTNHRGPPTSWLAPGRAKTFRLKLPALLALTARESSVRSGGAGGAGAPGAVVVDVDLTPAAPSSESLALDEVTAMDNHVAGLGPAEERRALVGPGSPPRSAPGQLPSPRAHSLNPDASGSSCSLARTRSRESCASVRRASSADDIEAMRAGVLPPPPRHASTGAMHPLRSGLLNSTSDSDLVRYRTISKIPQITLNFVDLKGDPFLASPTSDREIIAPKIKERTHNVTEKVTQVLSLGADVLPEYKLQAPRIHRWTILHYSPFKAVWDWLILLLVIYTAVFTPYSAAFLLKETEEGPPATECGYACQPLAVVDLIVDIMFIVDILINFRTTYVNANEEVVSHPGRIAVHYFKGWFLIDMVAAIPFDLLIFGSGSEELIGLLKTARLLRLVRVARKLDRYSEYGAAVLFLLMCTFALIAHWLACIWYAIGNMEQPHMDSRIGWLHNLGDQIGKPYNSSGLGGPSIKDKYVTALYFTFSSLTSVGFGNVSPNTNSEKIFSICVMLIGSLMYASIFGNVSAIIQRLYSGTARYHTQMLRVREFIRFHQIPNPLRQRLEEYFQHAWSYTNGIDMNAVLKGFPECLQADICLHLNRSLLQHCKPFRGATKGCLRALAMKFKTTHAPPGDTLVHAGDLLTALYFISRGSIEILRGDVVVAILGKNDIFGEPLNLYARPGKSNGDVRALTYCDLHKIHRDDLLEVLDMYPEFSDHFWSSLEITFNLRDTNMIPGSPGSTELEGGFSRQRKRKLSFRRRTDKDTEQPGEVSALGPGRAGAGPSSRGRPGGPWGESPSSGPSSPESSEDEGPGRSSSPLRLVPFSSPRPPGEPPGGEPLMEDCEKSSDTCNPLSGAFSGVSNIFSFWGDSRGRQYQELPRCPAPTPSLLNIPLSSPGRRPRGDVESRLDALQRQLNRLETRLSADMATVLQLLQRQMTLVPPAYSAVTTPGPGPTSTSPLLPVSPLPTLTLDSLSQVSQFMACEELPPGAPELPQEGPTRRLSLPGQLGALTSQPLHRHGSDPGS
Test: Patch clamp assay (hERG tail currents, whole-cell)
readout name: IC50

> print(dat)
                                   compound  value.reported
1  CC(C)N(C(=O)c1cc(F)ccc1Oc1cncnc1N1CC2(CCN(C[C@@H]3CC[C@@H](NS(=O)(=O)C4CC4)CO3)CC2)C1)[C@H]1CCOC1 [Example 176]         > 50 µM
